- Tested on: PBMC from allergic donors
- ASSAY_DETAILS: IL-5 ELISPOT with extract-stimulated short-term lines
- Format: cell-based, human
- CONDITION_SET: positive donor/peptide response; each table line is one donor
METRIC_NAME: Response (SFC/10^6) IL-5

{"columns": ["GIVEN_SMILES", "SYSTEM_TESTED", "METRIC_NAME", "RECORDED_MEASUREMENT"],
 "data": [
  ["CC(C)[C@H](NC(=O)[C@H](Cc1ccccc1)NC(=O)[C@H](CO)NC(=O)[C@H](CC(=O)O)NC(=O)[C@H](Cc1ccccc1)NC(=O)[C@H](CCCCN)NC(=O)[C@H](C)NC(=O)[C@H](CCC(=O)O)NC(=O)[C@@H]1CCCN1C(=O)[C@@H](NC(=O)[C@H](C)N)[C@@H](C)O)C(=O)N[C@@H](C)C(=O)N[C@@H](C)C(=O)N[C@@H](Cc1ccccc1)C(=O)N[C@H](C(=O)O)[C@@H](C)O", "PBMC from allergic donors", "Response (SFC/10^6) IL-5", 238],
  ["CC[C@H](C)[C@H](N)C(=O)N[C@@H](CCCCN)C(=O)N[C@@H](CO)C(=O)N[C@@H](CC(=O)O)C(=O)N[C@@H](CCCCN)C(=O)N1CCC[C@H]1C(=O)N[C@@H](CC(C)C)C(=O)N[C@@H](CCCCN)C(=O)NCC(=O)N1CCC[C@H]1C(=O)N[C@@H](Cc1ccccc1)C(=O)N[C@@H](CC(N)=O)C(=O)N[C@@H](Cc1ccccc1)C(=O)N[C@@H](CCCNC(=N)N)C(=O)N[C@@H](Cc1ccccc1)C(=O)O", "PBMC from allergic donors", "Response (SFC/10^6) IL-5", 317],
  ["CC[C@H](C)[C@H](NC(=O)[C@H](CC(=O)O)NC(=O)[C@H](CCC(=O)O)NC(=O)[C@H](CCSC)NC(=O)[C@H](CC(C)C)NC(=O)[C@H](CCCCN)NC(=O)[C@@H](N)CCC(N)=O)C(=O)N[C@@H](CC(N)=O)C(=O)N[C@H](C(=O)NCC(=O)N[C@@H](Cc1ccccc1)C(=O)N[C@@H](CCCCN)C(=O)N[C@@H](C)C(=O)N[C@@H](C)C(=O)N[C@H](C(=O)O)C(C)C)C(C)C", "PBMC from allergic donors", "Response (SFC/10^6) IL-5", 107]
]}

----------
- Test system: PBMC from allergic donors
- ASSAY_DETAILS: IFN-γ ELISPOT with extract-stimulated short-term lines
- Format: cell-based, human
- CONDITION_SET: positive donor/peptide response; one donor per table line
- Protocol: Spots were counted by computer-assisted image analysis (Zeiss, KS-ELISPOT reader, Munich, Germany). Each assay was performed in triplicate. The level of statistical significance was determined with a Student's t-test using the mean of triplicate values of the response against relevant pools or individual peptides versus the response against the DMSO control.
# binarize Response (SFC/10^6) IFNg: threshold 200 SFC/10^6 inclusive, high side label 1, low side label 0

{"columns": ["SUBSTANCE", "SYSTEM_TESTED", "CATEGORY_LABEL"],
 "data": [
  ["3324.0384 (VKAFKQVDVVISTVG)", "PBMC from allergic donors", "label 1"],
  ["3324.1133 (MASSSSVLLVVALFA)", "PBMC from allergic donors", "label 0"],
  ["3337.0028 (EPIAPYHFDLSGHAF)", "PBMC from allergic donors", "label 0"],
  ["3324.0633 (MLAVVAVVLASMVGG)", "PBMC from allergic donors", "label 1"],
  ["3324.0922 (TGLPLMYKFGDNLVV)", "PBMC from allergic donors", "label 1"],
  ["3324.1104 (LGFFKKEALPQCAQV)", "PBMC from allergic donors", "label 0"],
  ["3324.0842 (GGAINHLSDLSLDEF)", "PBMC from allergic donors", "label 0"],
  ["3324.0630 (LVATSAISLHMQEAG)", "PBMC from allergic donors", "label 0"],
  ["3324.1586 (KAVEAYLVAHPDLYK)", "PBMC from allergic donors", "label 0"],
  ["3324.0652 (LRTLGSTSADEVQRM)", "PBMC from allergic donors", "label 0"],
  ["3324.0914 (FAFGYFNGRILGVCP)", "PBMC from allergic donors", "label 0"],
  ["3324.0613 (MNIKLQMPLYVAGYK)", "PBMC from allergic donors", "label 0"],
  ["3324.0380 (VILAINHSVFVKGDH)", "PBMC from allergic donors", "label 1"],
  ["3324.0836 (EIDLRQMRTVTPIRM)", "PBMC from allergic donors", "label 0"],
  ["3324.0001 (AVGLLKAVESYLLAH)", "PBMC from allergic donors", "label 1"]
]}

----------
- System: PBMC from allergic donors
- ASSAY_DETAILS: Dual ELISPOT, total IL-5 and IFN-γ response (SFC)
- Format: cell-based, human
- CONDITION_SET: sum of IFNg and IL-5; one donor per table line
Response (SFC/10^6) Total reference
METRIC_NAME: Response (SFC/10^6) Total

{"columns": ["SUBSTANCE", "METRIC_NAME", "RECORDED_MEASUREMENT"],
 "data": [
  ["3324.0967 (IDNDIALIKLKSPMK)", "Response (SFC/10^6) Total", "187 SFC/10^6"],
  ["3324.1549 (SSSFPQFKSEEITNI)", "Response (SFC/10^6) Total", "77 SFC/10^6"],
  ["3324.1137 (KQQGIRYANPIAFFR)", "Response (SFC/10^6) Total", "123 SFC/10^6"],
  ["3324.1547 (KYMVIQGEPGAVIRG)", "Response (SFC/10^6) Total", "63 SFC/10^6"],
  ["3324.0529 (MAAVAFLALQLIVMA)", "Response (SFC/10^6) Total", "283 SFC/10^6"],
  ["3324.1036 (TLPTILQIASVTKMS)", "Response (SFC/10^6) Total", "120 SFC/10^6"],
  ["3324.0968 (IRYNSLKHSLGGEKI)", "Response (SFC/10^6) Total", "137 SFC/10^6"],
  ["3324.0660 (IPTAFKIGTTYTPEE)", "Response (SFC/10^6) Total", "280 SFC/10^6"],
  ["3324.0364 (LSRALNLLGLETDLS)", "Response (SFC/10^6) Total", "167 SFC/10^6"],
  ["3324.0966 (EYWILTAAHCVAGQT)", "Response (SFC/10^6) Total", "203 SFC/10^6"],
  ["3324.1133 (MASSSSVLLVVALFA)", "Response (SFC/10^6) Total", "53 SFC/10^6"],
  ["3324.0630 (LVATSAISLHMQEAG)", "Response (SFC/10^6) Total", "83 SFC/10^6"],
  ["3324.0522 (IIFSKNLNIKLNMPL)", "Response (SFC/10^6) Total", "863 SFC/10^6"],
  ["3324.0349 (TSVIPAARLFKAFFL)", "Response (SFC/10^6) Total", "427 SFC/10^6"],
  ["3324.0838 (LESVKYVQSNGGAIN)", "Response (SFC/10^6) Total", "467 SFC/10^6"],
  ["3324.0964 (GGEKISVAKIFAHEK)", "Response (SFC/10^6) Total", "137 SFC/10^6"],
  ["3324.0350 (DHTNFKYSYSVIEGG)", "Response (SFC/10^6) Total", "413 SFC/10^6"],
  ["3324.0998 (FDFLLMERIHEQIKK)", "Response (SFC/10^6) Total", "143 SFC/10^6"],
  ["3324.0979 (PDDLRSIYSRLHNLN)", "Response (SFC/10^6) Total", "177 SFC/10^6"],
  ["3324.1105 (LSEFITGASVRLQCR)", "Response (SFC/10^6) Total", "73 SFC/10^6"],
  ["3324.0827 (DNGYGYFAANIDLMM)", "Response (SFC/10^6) Total", "53 SFC/10^6"],
  ["3324.0652 (LRTLGSTSADEVQRM)", "Response (SFC/10^6) Total", "113 SFC/10^6"],
  ["3324.0969 (TLANPILPASPNATI)", "Response (SFC/10^6) Total", "167 SFC/10^6"],
  ["3324.0972 (LKAATAFMLAWNYGV)", "Response (SFC/10^6) Total", "757 SFC/10^6"],
  ["3324.0839 (ARKNFLESVKYVQSN)", "Response (SFC/10^6) Total", "487 SFC/10^6"],
  ["3324.1134 (VALFAVFLGSAHGIA)", "Response (SFC/10^6) Total", "208 SFC/10^6"],
  ["3324.0960 (SELRRVDIAVVSRKE)", "Response (SFC/10^6) Total", "120 SFC/10^6"],
  ["3324.0372 (PAKNIYSFNEIVALW)", "Response (SFC/10^6) Total", "67 SFC/10^6"],
  ["3324.1104 (LGFFKKEALPQCAQV)", "Response (SFC/10^6) Total", "627 SFC/10^6"]
]}
